TARGET_DESC: human melanocortin 4 receptor (human, UniProt P32245 1-332)
Sequence (P32245 whole entry): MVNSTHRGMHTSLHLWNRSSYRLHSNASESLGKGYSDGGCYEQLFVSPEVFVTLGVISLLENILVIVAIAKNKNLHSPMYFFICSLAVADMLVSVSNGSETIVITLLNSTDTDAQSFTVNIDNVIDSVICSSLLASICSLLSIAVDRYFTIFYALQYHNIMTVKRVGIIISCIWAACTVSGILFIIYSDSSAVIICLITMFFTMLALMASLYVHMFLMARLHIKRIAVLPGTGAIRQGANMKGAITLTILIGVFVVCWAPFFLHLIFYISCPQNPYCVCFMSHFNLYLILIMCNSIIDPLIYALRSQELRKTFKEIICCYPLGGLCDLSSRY
TEST_DESCRIPTION: cell-based or functional assay
Starred links: 1 amine or outer side, 2 acyl side, 3 side chain; linkers in the order of their positions; H or OH if unused. Non-standard residues stand in square brackets, D forms with d. No end group written: not given here. Ser(Bzl) = O-benzyl-serine, O=C([C@H](COCc1ccccc1)N[*:1])[*:2]; dPhe(4-Cl) = N[C@H](Cc1ccc(Cl)cc1)C(=O)O; Ahp = NCCCCCCC(=O)O
RECORDED_METRIC: EC50 (nM), normal system (cAMP)
Write the answer as a number in nM, unit excluded.

Please report the recorded EC50 (nM), normal system (cAMP) for [Ahp][Ser(Bzl)][dPhe(4-Cl)]RWD-NH2 (N-terminus assumed; SMILES N=C(N)NCCC[C@H](NC(=O)[C@@H](Cc1ccc(Cl)cc1)NC(=O)[C@H](COCc1ccccc1)NC(=O)CCCCCCN)C(=O)N[C@@H](Cc1c[nH]c2ccccc12)C(=O)N[C@@H](CC(=O)O)C(N)=O, also called Compound No. 13) [NH2-(CH2)6-C(=O)-Ser(Bzl)-D-Phe(4-Cl)-Arg-Trp-Asp-NH2] . 568
